Values from patent US20250152585A1

Molecular target: full length N-terminally FLAG-tagged PARP1 (Homo sapiens, UniProt P09874)
Sequence (P09874 whole entry): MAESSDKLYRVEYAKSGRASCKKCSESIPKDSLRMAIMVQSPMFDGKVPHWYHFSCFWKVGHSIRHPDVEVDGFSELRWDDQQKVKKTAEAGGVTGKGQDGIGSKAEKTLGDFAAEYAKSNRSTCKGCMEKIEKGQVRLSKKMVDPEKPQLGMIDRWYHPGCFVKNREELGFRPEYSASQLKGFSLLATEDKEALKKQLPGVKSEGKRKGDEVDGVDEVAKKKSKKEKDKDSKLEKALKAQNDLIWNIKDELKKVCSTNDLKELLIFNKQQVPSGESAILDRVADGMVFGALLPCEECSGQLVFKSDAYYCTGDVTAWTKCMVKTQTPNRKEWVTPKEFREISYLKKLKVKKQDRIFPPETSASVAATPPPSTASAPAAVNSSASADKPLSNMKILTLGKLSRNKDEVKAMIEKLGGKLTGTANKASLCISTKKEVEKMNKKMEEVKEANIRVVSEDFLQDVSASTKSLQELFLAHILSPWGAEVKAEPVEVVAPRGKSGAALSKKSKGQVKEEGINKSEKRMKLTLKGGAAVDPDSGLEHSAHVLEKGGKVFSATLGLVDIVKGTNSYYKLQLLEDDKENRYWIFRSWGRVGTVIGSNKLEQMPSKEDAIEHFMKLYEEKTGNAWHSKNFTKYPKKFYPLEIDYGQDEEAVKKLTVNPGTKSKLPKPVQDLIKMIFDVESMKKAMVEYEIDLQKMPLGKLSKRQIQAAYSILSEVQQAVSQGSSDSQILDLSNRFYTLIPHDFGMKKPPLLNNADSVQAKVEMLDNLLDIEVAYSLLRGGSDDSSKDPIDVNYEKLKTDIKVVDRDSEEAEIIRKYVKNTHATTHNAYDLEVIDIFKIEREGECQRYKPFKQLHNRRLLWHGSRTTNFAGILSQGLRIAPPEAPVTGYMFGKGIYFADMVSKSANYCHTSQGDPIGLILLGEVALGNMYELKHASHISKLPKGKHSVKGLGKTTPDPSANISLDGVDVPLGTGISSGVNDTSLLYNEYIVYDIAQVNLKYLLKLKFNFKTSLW
Experiment: PARP1 probe displacement HTRF assay
Conditions: read-out: PARP1 HTRF; binned Kd, probe displacement HTRF
pKd: −log10 of the molar value.
experimental-endpoint: pKd

# count of solved cases: 10
>>> print(df.to_string())
                                   compound  experimental_endpoint  result_value
0  N#Cc1ccc(N2CCC(N3CCC(c4cc5cccc(F)c5c(=O)[nH]4)C3)CC2)nc1 (single isomer, unassigned) [Compound 340a]                    pKd        > 8.00
1  O=c1[nH]c(C2CCN(C3CCN(c4nc5ccccc5[nH]4)CC3)C2)cc2ccccc12 (racemic) [Compound 297rac]                    pKd  7.00 to 8.00
2  CCc1ccc(C2CCN(C3CCN(c4cnc(C(=O)NC)cc4C(F)(F)F)CC3)C2)[nH]c1=O (single isomer, unassigned) [Compound 298b]                    pKd  7.00 to 8.00
3  CNC(=O)c1ccc(N2CCC(N3CCC(c4ccc(CCO)c(=O)[nH]4)C3)CC2)cn1 (racemic) [Compound 286rac]                    pKd  7.00 to 8.00
4  CNC(=O)c1ccc(N2CCC(N3CCC(c4cc5ccc(F)cc5c(=O)[nH]4)C3)CC2)c(C#N)n1 (single isomer, unassigned) [Compound 396b]                    pKd        > 8.00
5  CNC(=O)c1ncc(N2CCC(N3CCC(c4cc5cccc(F)c5c(=O)[nH]4)C3)CC2)c(C(F)(F)F)n1 (single isomer, unassigned) [Compound 277b]                    pKd  7.00 to 8.00
6  O=c1[nH]c(C2CCN(C3CCN(c4ccc(-c5nnn[nH]5)nc4)CC3)C2)nc2ccccc12 (racemic) [Compound 263rac]                    pKd  6.00 to 7.00
7  CCc1ccc(C2CCN(C3CCN(c4ccc(C(=O)NC)cc4F)CC3)C2)[nH]c1=O (single isomer, unassigned) [Compound 366b]                    pKd        > 8.00
8  CCc1ccc(C2CCN(C3CCN(c4cnc(C(=O)NC5CC5)c(F)c4)CC3)C2)[nH]c1=O (single isomer, unassigned) [Compound 408b]                    pKd  7.00 to 8.00
9  CCNC(=O)c1ccc(N2CCC(N3CCC(c4ccc(CC)c(=O)[nH]4)C3)CC2)c(F)n1 (racemic) [Compound 264rac]                    pKd        > 8.00

Task: Given the entry CNC(=O)c1ccc(N2CCC(N3CCC(c4[nH]c(=O)c5c(F)cccc5c4F)C3)CC2)c(F)n1 (single isomer, unassigned) [Compound 402a] , report its measured pKd.
Output: > 8.00

Task: Given the entry CS(=O)(=O)NC(=O)c1ccc(N2CCC(N3CCC(c4cc5ccccc5c(=O)[nH]4)C3)CC2)cc1 (single isomer, unassigned) [Compound 342a] , report its measured pKd.
Output: 6.00 to 7.00

Task: Given the entry CNC(=O)c1ccc(N2CCC(N3CCC(c4cnc(C(F)(F)F)c(=O)[nH]4)C3)CC2)cn1 (single isomer, unassigned) [Compound 279a] , report its measured pKd.
Output: 6.00 to 7.00

Task: Given the entry CNC(=O)c1ccc(N2CCC(N3CCC(c4cc5c(c(C(F)(F)F)nn5C)c(=O)[nH]4)C3)CC2)c(F)n1 (single isomer, unassigned) [Compound 407a] , report its measured pKd.
Output: > 8.00

Task: Given the entry CNC(=O)c1ccc(N2CCC(N3CCC(c4cc5ncc(Cl)cc5c(=O)[nH]4)C3)CC2)c(F)n1 (single isomer, unassigned) [Compound 344b] , report its measured pKd.
Output: > 8.00

Task: Given the entry CNC(=O)c1ccc(N2CCC(N3CCC(c4[nH]c(=O)c5cc(F)ccc5c4F)C3)CC2)cn1 (single isomer, unassigned) [Compound 370b] , report its measured pKd.
Output: > 8.00
